Value source: PubChem BioAssay (NCI)

System: RPMI-8226 leukemia
Assay: NCI tumour cell line growth inhibition, 48 h
observed property: TGI (µM)
One number for each entry, in µM.

Please report TGI for every entry that follows.
1. O=C(Nc1ccc(Cl)cc1)c1ccc(NC2=C(Cl)C(=O)N(Cc3ccccc3)C2=O)cc1
2. COC1CC2C=C(C)/C=C/C=C/C(=O)NC(c3ccccc3)C/C=C/CCC(O)CC(=O)C2=C1O (configuration not stated)
3. COc1ccc2c(c1OC)C1=C(C2=O)c2cc3c(cc2CCN1)OCO3
4. O=C(c1ccc2ncc(-c3nc(NC4CC4)ncc3F)n2c1)N1CCOCC1
5. CC(C)(C)NCc1cc(C(C)(C)C)cc(-c2ccc(Cl)cc2)c1O
6. CCCCCCCCCCCCCCCCSCC(COC)COP(=O)([O-])OCC[N+](C)(C)C (configuration not stated)
7. CCOC(=O)c1c(Br)c(-c2ccc(Br)cc2)c(Br)n1C

Result:
1: 12.4; 2: 0.566; 3: 59.3; 4: 5.32; 5: 40.5; 6: 8.48; 7: 42.3

----------
For each entry below, report its TGI value.
System: OVCAR-3 ovarian
Assay: NCI tumour cell line growth inhibition, 48 h

Previously resolved entries follow.
# compound, TGI
records = [
    ("CC1(C)OC(=O)C=C([O-])O1.CC1(C)OC(=O)C=C([O-])O1.O=S(=O)([O-])c1ccc([O-])c2ncccc12.O=S(=O)([O-])c1ccc([O-])c2ncccc12.[Ti+4]", "> 100 µM"),
    ("Nc1nc2c(c(=O)[nH]1)N(C=O)C(CNc1ccc(C(=O)N[C@@H](CCC(=O)O)C(=O)O)cc1)CN2 (some centres undefined)", "> 125 µM"),
    ("Cc1ccc(N=Nc2c(O)ccc3cc(S(=O)(=O)O)ccc23)c(C)c1", "> 100 µM"),
    ("O=S(=O)(NCC1CCC(CNc2ccc(Cl)cc2)CC1)c1ccc(-c2ccccc2)cc1 (centres undefined)", "> 50 µM"),
    ("O=[N+]([O-])/C(C(Cl)=C(Cl)Cl)=C1\\NCCO1", "> 100 µM"),
    ("CCCCNN", "> 100 µM"),
    ("Cc1ccnc2[nH]c(-c3cccc(Cl)c3)cc(=O)c12", "0.162 µM"),
    ("COCCOC(=O)NC(=O)Nc1ccc(/C(=N/O)c2ccc(Cl)cc2)cc1", "4.4 µM"),
]

Task: Param item = CN(C(=O)Cc1ccc(Cl)c(Cl)c1)[C@H]1CCCC[C@@H]1[N+]1(C)CCCC1 ; retrieve measured TGI.
Result: > 100 µM

----------
For each entry below, report its GI50 value.
Test system: RXF 393 renal

# compound, GI50
data = [
    ("CCOC(=O)C(=Cc1ccccc1[N+](=O)[O-])C(=O)OCC", "1330 nM"),
    ("Nc1nnc2cc(Cl)ccc2n1", "> 100000 nM"),
    ("CCCCCCCCCCN(CCCCCCCCCC)CC(=O)c1ccc2cc(Br)c3ccccc3c2c1", "1980 nM"),
    ("COc1ccc(-c2cc(/C=C3\\C(=O)Nc4ccc(Cl)cc43)[nH]n2)cc1", "5610 nM"),
    ("COC1CC2C=C(C)/C=C/C=C/C(=O)NC(c3ccccc3)C/C=C/CCC(O)CC(=O)C2=C1O (stereo unspecified)", "314 nM"),
]

Task: Param item = COc1cc2c3c(n(CCCNCCN)c(=O)c2cc1OC)-c1cc2c(cc1C3=O)OCO2 ; retrieve measured GI50.
Result: 5360 nM

----------
For each entry below, report its TGI value.
System: EKVX NSCLC
Assay: NCI tumour cell line growth inhibition, 48 h
Give bare numbers, in µM.

# molecule, observed property, quantitative result
records = [
    ("N#Cc1cnc2cc(OC[C@@H](O)CO)c(NC(=O)CC3CSSC3)cc2c1Nc1ccc(OCc2cccc(F)c2)c(Cl)c1", "TGI", 1.18),
    ("COc1ccc(N2C(=Nc3ccccc3)SC(=N/S(=O)(=O)c3ccccc3)/C2=N\\S(=O)(=O)c2ccccc2)cc1", "TGI", 61.2),
    ("CO/C1=C\\C(C)=C\\C(C)C(O)C(C)C/C(C)=C/C=C/C(OC)C(C(C)C(O)C(C)C2(O)CC(O)C(C)C(C(C)C)O2)OC1=O (centres undefined)", "TGI", 4.93),
]

Proceed to the following item.
Task: Param item = CC(=O)OC1CC2C(C)(C)C(=O)C=C[C@]2(C)C2CCC3(C)C(c4ccoc4)C(=O)[C@H]4O[C@]43[C@]12C (some centres undefined) ; retrieve measured TGI.
Result: 89.2

----------
Lab note: GI50 readings collected with NCI-H226 lung for the following compounds.

Please report GI50 for every entry that follows.
1. O=S(=O)(NCC1CCC(CNc2ccc(Cl)cc2)CC1)c1ccc(-c2ccccc2)cc1 (stereo not drawn)
2. COc1ccc(/C=C/c2nc(NCCCN(C)C)c3ccccc3n2)cc1
3. Nc1nnc2cc(Cl)ccc2n1

Result:
1. 21.2 µM
2. 12 µM
3. > 100 µM

----------
System: SN12C renal
Assay: NCI tumour cell line growth inhibition, 48 h
For each entry below, report its TGI value.

Previously resolved entries follow.
# compound, TGI
rows = [
    ("C=C=C(CC)C(C(=O)OC)N(CC)CC (stereo not given)", "> 100 µM"),
    ("COC(=O)c1cc(NC(=O)c2cc(NC(=O)c3cc([N+](=O)[O-])cn3C)cn2C)cn1C", "> 100 µM"),
    ("Clc1cc2c(c(CSC3=NCN(CC4CC4)CN3)c1)OCOC2", "> 100 µM"),
    ("Cc1ccnc2[nH]c(-c3cccc(Cl)c3)cc(=O)c12", "> 100 µM"),
    ("COc1cc2noc(-c3ccccc3)c2cc1OC", "> 100 µM"),
]

Please report TGI for every entry that follows.
1. O=C1CSc2nc3ccccc3n2/C=N\N1
2. O=C1C=C(Br)C(=O)C12CCc1ccccc12 (stereo not given)

Result:
> 100 µM
35 µM

Please report TGI for every entry that follows.
1. COCCOC(=O)NC(=O)Nc1ccc(/C(=N/O)c2ccc(Cl)cc2)cc1
2. CCCCCC(=O)c1ccc2[nH]c3c(C)cc([N+](=O)[O-])c(C)c3c2c1
3. COc1cc(OC)c2c(O)c3c(cc2c1)CC(C)(C)CC3=O
4. C#CC1(O)C(COP(=O)(O)OC2CC(n3cc(F)c(=O)[nH]c3=O)OC2CO)OC(n2ccc(N)nc2=O)C1O (stereo not given)
5. O=C(Nc1ccc(Cl)cc1)c1ccc(NC2=C(Cl)C(=O)N(Cc3ccccc3)C2=O)cc1
6. CCOC(=O)N1CCN(c2ccc3c(C)cc(C)nc3n2)CC1
7. Cc1ccsc1/C=N/Nc1cc(C)c2cccc(C)c2n1
8. O=c1[nH]nc(-c2ccccc2)n1/N=C/c1ccncc1

Result:
1. 59.3 µM
2. > 100 µM
3. > 100 µM
4. > 100 µM
5. 25.1 µM
6. > 100 µM
7. > 100 µM
8. > 100 µM

Please report TGI for every entry that follows.
1. Cc1ccc(OCC2OC(n3cnc4c(N(C)C)nc(Br)nc43)CC2Oc2ccc(C)cc2)cc1 (stereo not given)
2. N=c1nnc(=O)c2c(s1)-n1ncc(C(=O)O)c1NN2
3. CCOC(=O)C(CO)c1nc2c([nH]c1=O)c(=O)n(C)c(=O)n2C (stereo not given)
4. COc1ccc2[nH]c(Cl)c(/C=C3/C(=O)Nc4cc(C)c(OC)cc43)c2c1
5. CCOC(=O)Nc1c(C#N)[n+]([O-])c2cc(Cl)c(Cl)cc2[n+]1[O-]
6. CCOc1ccc(/C=C(\Cl)c2ccc(OC)c(OC)c2)cc1

Result:
1: > 100 µM; 2: > 100 µM; 3: > 100 µM; 4: 20.1 µM; 5: 32 µM; 6: > 100 µM

Please report TGI for every entry that follows.
1. C=CC1ON(Cc2ccccc2)CCc2cc(OC)c(OC)cc21 (stereo not given)
2. CCOC(=O)/C(=C\c1ccc(N(C)C)cc1)S(=O)(=O)C(F)(F)C(F)(F)C(F)(F)C(F)(F)F
3. NC(=O)c1nnc2cc(F)ccc2c1N
4. CNc1ccc(-c2nc3cc(C)ccc3o2)cc1

Result:
["> 100 µM", "> 100 µM", "> 100 µM", "> 100 µM"]

----------
Tested on: SF-268 CNS
Experiment: NCI tumour cell line growth inhibition, 48 h
observed property: TGI (µM)
Give bare numbers, in µM.

# compound, TGI [µM]
measured = [
    ("OCC1OC(n2ccc3c(NO)ncnc32)C(O)C1O (centres undefined)", 2.81),
    ("Cc1c2c(cc3c1[nH]c1ccccc13)C=NCC2", 49.6),
    ("COc1ccc(/C=C/c2nc(NCCCN(C)C)c3ccccc3n2)cc1", 4.17),
    ("O=C1CSC(/C(=C\\c2ccc(Cl)cc2)c2nc3ccccc3[nH]2)=N1", 23),
]

Proceed to the following item.
Task: Param item = CC/C=C\C[C@H](O)C/C=C1/C(=O)C=C[C@@H]1C/C=C\CCCC(=O)N(C)C ; retrieve measured TGI.
Result: 13.9
